# system-tested: T1, Hmm-hTFRC (REGN2431), monomeric human transferrin receptor ectodomain with N-terminal hexahistidine-myc-myc … (human, UniProt P02786 89-760)
# T1 construct: also called hmm.hTfR(C89-F763); His-myc-myc-hTFRC ecto
# T1 sequence (P02786 other isoform, or with tags, fused parts or gaps): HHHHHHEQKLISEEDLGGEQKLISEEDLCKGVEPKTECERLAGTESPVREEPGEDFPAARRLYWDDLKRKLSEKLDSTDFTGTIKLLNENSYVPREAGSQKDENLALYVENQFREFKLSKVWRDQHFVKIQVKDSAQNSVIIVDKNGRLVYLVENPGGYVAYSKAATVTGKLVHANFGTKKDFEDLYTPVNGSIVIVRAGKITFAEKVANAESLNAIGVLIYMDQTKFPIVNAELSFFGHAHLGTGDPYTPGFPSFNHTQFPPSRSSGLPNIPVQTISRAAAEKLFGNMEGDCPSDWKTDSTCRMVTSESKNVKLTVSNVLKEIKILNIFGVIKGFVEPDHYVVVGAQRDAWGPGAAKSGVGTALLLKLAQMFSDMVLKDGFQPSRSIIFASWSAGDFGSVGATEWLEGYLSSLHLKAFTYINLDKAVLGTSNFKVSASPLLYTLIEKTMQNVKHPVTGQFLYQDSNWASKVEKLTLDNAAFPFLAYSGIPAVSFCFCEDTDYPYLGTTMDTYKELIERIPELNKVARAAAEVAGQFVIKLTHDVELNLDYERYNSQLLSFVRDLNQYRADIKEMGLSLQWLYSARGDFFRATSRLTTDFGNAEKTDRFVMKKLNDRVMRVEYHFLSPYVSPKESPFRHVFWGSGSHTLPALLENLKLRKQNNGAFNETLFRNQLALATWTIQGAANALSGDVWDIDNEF
# procedure-summary: blocking ELISA, supernatant; Hmm-hTFRC binding to immobilized human holo-Tf
Below, each of the binders is paired with its reported % Blocking value.
quantity: % Blocking

[
  {
    "binder": "69263 Fab (Fab, V domains shown, CHO supernatant) VH: EVQLVESGGGLVQPGRSLRLSCAVSGFTFDDYAMHWVRQAPGKGLEWVSGISWNSGTRGYADSVKGRFTISRDNAKNSLYLQMNSLRGEDTALYYCVKDITISPNYYGMDVWGQGTTVTVSS VL: DIQMTQSPSSLSASVGDRVTITCRASQDISHYSAWYQQKPGKLPNLLIYAASTLQSGVPSRFSGSGSGTDFSLTTSSLQPEDVATYYCQKYNSVPLTFGGGTKVEIKR",
    "quantity": "% Blocking",
    "meas-value": "14%"
  },
  {
    "binder": "69305 scFv (VH-VK) (scFv) QVQLVESGGGVVQPGRSLRLSCAASGFTFSSYGMHWVRQAPGKGLEWVAVIWYDGSNKYYADSVKGRFTISRDISKNTLYLQMNSLRAEDTAVYYCAGQLDLFFDYWGQGTLVTVSSDIQMTQSPSSLSASVGDRVTITCRASQSIDRYLNWYRQKPGKAPKLLIYTTSSLQSGVPSRFSGSGSGTDFTLTLSSLQPEDFATYYCQQSYSPPLTFGGGTKVEIK",
    "quantity": "% Blocking",
    "meas-value": "3%"
  },
  {
    "binder": "12795B scFv (VK-VH) (scFv, CHO supernatant; Vk-3xG4S-Vh) scFv: DIQMTQSPSSLSASVGDRVTITCRASQGIRDHFGWYQQKPGKAPKRLIYAASSLHSGVPSRFSGSGSGTEFTLTISSLQPEDFATYYCLQYDTYPLTFGGGTKVEIKGGGGSGGGGSGGGGSEVQLVESGGGLVQPGGSLRLSCATSGFTFTSYDMKWVRQAPGLGLEWVSAISGSGGNTYYADSVKGRFTISRDNSRNTLYLQMNSLRAEDTAVYYCTRSHDFGAFDYFDYWGQGTLVTVSS",
    "quantity": "% Blocking",
    "meas-value": "23%"
  }
]
